- system tested: T1, Rad9-pT peptide with SGS linker (SGS-SLEVpTEADATFYAKK) (yeast, SMILES …)
- T1 construct: also called cognate pT peptide; Rad-pT
- T1 peptide: Biotin-SGSSLEV[pT]EADATFYAKK-NH2
- method notes: phage ELISA on immobilized Rad9-pT, phage normalised to the Flag epitope; anti-M13-HRP, A405
Square brackets hold non-standard residues; d marks the D form. * marks the point of attachment. Biotin = O=C1N[C@H]2[C@H](CS[C@H]2CCCCC(=O)*)N1; pT = C[C@@H](OP(=O)(O)O)[C@H](N)C(=O)O
measurement name: binding result

| binder | readout value |
| --- | --- |
| D (designed binder, also called S34D) FHA1 domain displayed on M13 protein III: MENITQPTQQSTQATQRFLIEKFSQEQIGENIVDRVISTTGQIPIRDLSADISQVLKEKRSIKKVWTFGRNPACDYHLGNISRLSNKHFQILLGEDGNLLLNDISTNGTWLNGQKVEKNSNQLLSQGDEITVGVGVESDILSLVIFINDKFKQSLEQNKVDRIRSNLKNT | no binding |
| E (designed binder, also called S34E) FHA1 domain displayed on M13 protein III: MENITQPTQQSTQATQRFLIEKFSQEQIGENIVERVISTTGQIPIRDLSADISQVLKEKRSIKKVWTFGRNPACDYHLGNISRLSNKHFQILLGEDGNLLLNDISTNGTWLNGQKVEKNSNQLLSQGDEITVGVGVESDILSLVIFINDKFKQSLEQNKVDRIRSNLKNT | no binding |
| K (designed binder, also called S34K) FHA1 domain displayed on M13 protein III: MENITQPTQQSTQATQRFLIEKFSQEQIGENIVKRVISTTGQIPIRDLSADISQVLKEKRSIKKVWTFGRNPACDYHLGNISRLSNKHFQILLGEDGNLLLNDISTNGTWLNGQKVEKNSNQLLSQGDEITVGVGVESDILSLVIFINDKFKQSLEQNKVDRIRSNLKNT | no binding |
